Test system: hiPSC-CMs (iCell2 Cardiomyocytes) 2D monolayers
protocol-summary: Contractility measurements using video imaging (ContractilityTool / MUSCLEMOTION)
Type: cell-based, human
condition-parameters: Homo sapiens, Cardiomyocyte, 0.5 h, FM monolayer; 0.3 µM; 30 min; delta over DMSO 0.1%; read-out: CtAmp (%DD)
Field 'label' (enum: Y / N). Set to Y when activity at 0.3 µM is strictly under 70%; else N.

A record lists C[N+](C)(C)CCOC(N)=O [Carbachol] . Is its activity at 0.3 µM below 70%? N

A record lists COc1ccc([C@@H]2Sc3ccccc3N(CCN(C)C)C(=O)[C@@H]2OC(C)=O)cc1 [Diltiazem] . Is its activity at 0.3 µM below 70%? Y

A record lists C[C@@H]1CC(=O)NN=C1c1ccc(NN=C(C#N)C#N)cc1 [Levosimendan] . Is its activity at 0.3 µM below 70%? N

A record lists C[C@H]1O[C@@H](O[C@H]2[C@@H](O)C[C@H](O[C@H]3[C@@H](O)C[C@H](O[C@H]4CC[C@@]5(C)[C@H](CC[C@@H]6[C@@H]5C[C@@H](O)[C@]5(C)[C@@H](C7=CC(=O)OC7)CC[C@]65O)C4)O[C@@H]3C)O[C@@H]2C)C[C@H](O)[C@@H]1O [Digoxin] . Is its activity at 0.3 µM below 70%? Y

A record lists O=C(O)COCCN1CCN(C(c2ccccc2)c2ccc(Cl)cc2)CC1 (stereo not drawn) [Cetirizine] . Is its activity at 0.3 µM below 70%? N

A record lists C=C[C@H]1C[N@@]2CC[C@H]1C[C@@H]2[C@@H](O)c1ccnc2ccc(OC)cc12 [Quinidine] . Is its activity at 0.3 µM below 70%? Y

A record lists O=C1CCCN1CC#CCN1CCCC1 [Oxotremorine] . Is its activity at 0.3 µM below 70%? N

A record lists Cc1[nH]c(=O)c(C#N)cc1-c1ccncc1 [Milrinone] . Is its activity at 0.3 µM below 70%? N

---

Test system: hiPSC-CMs (iCell2 Cardiomyocytes) 2D monolayers
protocol-summary: Membrane potential (action potential) recordings with FluoVolt voltage-sensitive dye on the CellOPTIQ platform
Type: cell-based, human
condition-parameters: Homo sapiens, Cardiomyocyte, 0.5 h, FM monolayer; 0.1 µM; 30 min; delta over DMSO 0.1%; read-out: APD90 (%DD)
Please go through the items and note down their activity at 0.1 µM.
Write the answer as a number in %, unit excluded.

Param item = "C[N+](C)(C)CCOC(N)=O" ; retrieve measured activity at 0.1 µM. 100

Param item = "C[C@@H]1CC(=O)NN=C1c1ccc(NN=C(C#N)C#N)cc1" ; retrieve measured activity at 0.1 µM. 96

Param item = "COc1ccc([C@@H]2Sc3ccccc3N(CCN(C)C)C(=O)[C@@H]2OC(C)=O)cc1" ; retrieve measured activity at 0.1 µM. 78

Param item = CC(C)NCC(O)c1ccc(O)c(O)c1 (stereo not shown) ; retrieve measured activity at 0.1 µM. 60

---

Tested on: hiPSC-CMs (iCell2 Cardiomyocytes) 2D monolayers
protocol-summary: Contractility measurements using video imaging (ContractilityTool / MUSCLEMOTION)
Assay type: cell-based, human
condition-parameters: Homo sapiens, Cardiomyocyte, 0.5 h, FM monolayer; 0.1 µM; 30 min; delta over DMSO 0.1%; read-out: CtAmp (%DD)
# if value of activity at 0.1 µM reaches 90%, tag TRUE; if it stays below, tag FALSE

Check if activity at 0.1 µM >= 90% (inclusive). Item: "COc1ccc([C@@H]2Sc3ccccc3N(CCN(C)C)C(=O)[C@@H]2OC(C)=O)cc1" TRUE

Check if activity at 0.1 µM >= 90% (inclusive). Item: CC(C)NCC(O)c1ccc(O)c(O)c1 (stereo not shown) TRUE

Check if activity at 0.1 µM >= 90% (inclusive). Item: "C[N+](C)(C)CCOC(N)=O" FALSE

Check if activity at 0.1 µM >= 90% (inclusive). Item: "O=C1CCCN1CC#CCN1CCCC1" TRUE

Check if activity at 0.1 µM >= 90% (inclusive). Item: "C[C@@H]1CC(=O)NN=C1c1ccc(NN=C(C#N)C#N)cc1" TRUE

Check if activity at 0.1 µM >= 90% (inclusive). Item: O=C(O)COCCN1CCN(C(c2ccccc2)c2ccc(Cl)cc2)CC1 (stereo not shown) FALSE

Measured values drawn from paper PMC10135569 for this set.
